Test system: RPMI-8226
Experiment: Cytotoxicity against human RPMI8226 cells after 48 hrs by resazurin assay
Type: functional, cell-based
Details: Homo sapiens, RPMI-8226, 48 h
assay.endpoint: IC50 (nM)
Only the number, expressed in nM, is required.

Supply measured IC50 of C[C@@]12OC(=O)[C@]1([C@@H](O)[C@@H]1C=CCCC1)NC(=O)[C@@H]2CCCl in your reply.
11

Give IC50 for CC(C)[C@H](O)[C@@]12NC(=O)[C@H](CCCl)[C@]1(C)OC2=O [ANTIPROTEALIDE]
220
